Taken from ChEMBL document CHEMBL1961873.

biological target: BDNF/NT-3 growth factors receptor (Homo sapiens) (UniProt Q16620); details: at 0.1 µM;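 note: each value is a mean percent inhibition of TrkB kinase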
Sequence (Q16620 32-822 limits assumed): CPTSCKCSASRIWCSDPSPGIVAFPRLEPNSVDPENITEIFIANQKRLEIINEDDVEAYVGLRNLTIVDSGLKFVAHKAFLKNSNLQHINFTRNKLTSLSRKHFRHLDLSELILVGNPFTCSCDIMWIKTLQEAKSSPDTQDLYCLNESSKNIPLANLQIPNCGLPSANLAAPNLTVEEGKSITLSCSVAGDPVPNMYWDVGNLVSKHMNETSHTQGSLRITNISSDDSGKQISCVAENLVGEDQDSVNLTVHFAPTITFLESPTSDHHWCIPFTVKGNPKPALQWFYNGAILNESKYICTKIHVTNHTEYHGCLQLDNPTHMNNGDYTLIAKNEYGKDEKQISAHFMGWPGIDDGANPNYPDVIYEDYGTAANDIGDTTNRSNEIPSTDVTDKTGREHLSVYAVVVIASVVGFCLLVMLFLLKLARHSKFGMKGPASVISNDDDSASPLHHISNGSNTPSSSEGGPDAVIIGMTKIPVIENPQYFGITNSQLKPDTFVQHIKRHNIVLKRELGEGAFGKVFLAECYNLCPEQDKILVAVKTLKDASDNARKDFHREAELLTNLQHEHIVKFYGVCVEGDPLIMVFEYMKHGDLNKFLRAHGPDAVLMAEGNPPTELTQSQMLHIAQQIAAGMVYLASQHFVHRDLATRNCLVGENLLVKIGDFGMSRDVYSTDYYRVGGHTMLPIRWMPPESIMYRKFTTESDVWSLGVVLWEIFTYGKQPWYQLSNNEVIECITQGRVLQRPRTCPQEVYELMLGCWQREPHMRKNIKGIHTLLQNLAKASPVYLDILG
MEASURED_QUANTITY: inhibition

> print(dat)
                                 item.smiles  measured.value
 1   Cc1ccc(C(=O)NC2CC2)cc1-c1ccc2[nH]ncc2c1          -1.91%
 2  NS(=O)(=O)c1ccc(Nc2cc(-c3cccc(O)c3)n[nH]2)cc1           5.48%
 3  Nc1nccc(C#Cc2cncnc2Nc2ccc(OCc3cccc(F)c3)c(Cl)c2)n1           3.48%
 4  NS(=O)(=O)c1ccc(-c2cc3ccncc3cc2OCc2ccccc2)cc1            2.7%
 5  COc1cccc(-n2ncc3c(N/N=C/c4ccc(S(C)(=O)=O)cc4)ncnc32)c1           6.69%
 6  O=C1Nc2ccccc2/C1=C/Nc1ccc2[nH]c(=O)[nH]c2c1           26.2%
 7  NC(=O)c1sc(-n2cnc3ccccc32)cc1OCc1ccccc1Br           3.05%
 8  CCS(=O)(=O)c1ccc(OC)c(Nc2nccc(N(C)c3ccc4c(C)n[nH]c4c3)n2)c1           5.19%
 9  Cc1ccc(NC(=O)CC2CC2)cc1-c1ccc(C(=O)NCC2CC2)cc1           1.14%
10  O=C1Nc2ccc(-c3cccnc3)cc2C1=Cc1cc(Br)c(O)c(Br)c1           2.93%
11  CC(C)c1ccc2c(c1)NC(=O)/C2=N/Nc1ccc(S(N)(=O)=O)cc1           4.87%
12  OCc1ccc(-c2nc(-c3ccccn3)c(-c3ccc4c(c3)OCO4)[nH]2)cc1           3.16%

###

target: MAP kinase-activated protein kinase 2 (Homo sapiens); details: at 0.1 µM;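 note: figures are mean inhibition values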
# inhibition per record follows
MEASURED_QUANTITY: inhibition (%)

> print(dat)
                                 item.smiles  measured.value
 1  CCS(=O)(=O)c1ccc(OC)c(Nc2nccc(N(C)c3ccc4c(C)n[nH]c4c3)n2)c1            2.62
 2     COc1cc(/C=N/Nc2ncnc3c2cnn3C(C)C)ccc1O            0.78
 3  CN(C)c1cc2c(Nc3ccc4c(cnn4Cc4ccccc4)c3)ncnc2cn1            1.53
 4             CCn1c(-c2nonc2N)nc2ccc(F)cc21            2.81
 5    N#Cc1cccc(Nc2nccc(-c3cnn4ncccc34)n2)c1            2.34
 6   Cc1nc(-c2ccccc2)n2nc(NCCCN3CCOCC3)ncc12            1.25
 7   NC(=O)c1cccc(Nc2nccc(Nc3cccc(F)c3)n2)c1            0.22
 8  CCn1c(-c2nonc2N)nc2c(C#CC(C)(C)O)nc(OCCNC)cc21            1.85
 9  NC(=O)c1sc(-n2cnc3ccccc32)cc1OCc1ccccc1Br            4.58
10  Nc1ccc(C#Cc2cncnc2Nc2ccc(OCc3cccc(F)c3)c(Cl)c2)cc1            2.17
11  CC(C)c1ccc(Nc2nccc(-c3cnn4ncccc34)n2)cc1            0.86
